- assayTarget: mGlu4 receptor (Homo sapiens)
- Construct: mGlu4 receptor NM_000841, mGlu7 receptor NM_000844.2, and mGlu8 receptor NM_000845; expressed in transfected cells; host or cells: T-REx 293
- assayName: forskolin-stimulated cAMP assay, PAM mode (EC20 of L-Glu), T-REx 293 cells
- Assay type: cell-based
- studyConditions: in the presence of 10 µM of compound; SEM where given
Label scheme for Fold shift of L-Glu dose-response curve: lower than 5 is NO, 5 and above is YES.

compound	classLabel
O=C(Nc1ccc(-c2noc(-c3ccccc3)n2)c(F)c1)c1ccccn1 [Compound 55]	NO
COc1cc(NC(=O)c2ccccn2)ccc1-c1noc(-c2ccc(F)cc2Cl)n1 [Compound 38]	NO
COc1cc(NC(=O)c2ccncn2)ccc1-c1noc(-c2ccccc2Cl)n1 [Compound 45]	NO
O=C(Nc1ccc(-c2noc(-c3ccc(F)cc3Cl)n2)c(Cl)c1)c1ccccn1 [Compound 53]	NO
O=C(Nc1ccc(-c2noc(-c3ccccc3)n2)c(C(F)(F)F)c1)c1ccccn1 [Compound 59]	YES
COc1ccccc1-c1nc(-c2ccc(NC(=O)c3ccccn3)cc2Cl)no1 [Compound 54]	NO
COc1cc(NC(=O)c2ccccn2)ccc1-c1noc(-c2ccc(Cl)cc2)n1 [Compound 36]	NO
O=C(Nc1ccc(-c2noc(-c3ccccc3Cl)n2)cc1)c1ccccn1 [Compound 17d]	NO
COc1cc(NC(=O)c2cccc(Cl)n2)ccc1-c1noc(-c2ccccc2Cl)n1 [Compound 41]	NO
COc1cc(NC(=O)c2ccccn2)ccc1-c1noc(-c2ccccc2)n1 [Compound 33]	YES
COc1cc(NC(=O)c2nccs2)ccc1-c1noc(-c2ccccc2Cl)n1 [Compound 46]	NO
COc1cc(NC(=O)c2cccc(F)n2)ccc1-c1noc(-c2ccccc2F)n1 [Compound 47]	YES

----------
- assayTarget: CYP2C19 (Homo sapiens)
- Construct: purchased Corning
- Sequence (P33261 whole entry): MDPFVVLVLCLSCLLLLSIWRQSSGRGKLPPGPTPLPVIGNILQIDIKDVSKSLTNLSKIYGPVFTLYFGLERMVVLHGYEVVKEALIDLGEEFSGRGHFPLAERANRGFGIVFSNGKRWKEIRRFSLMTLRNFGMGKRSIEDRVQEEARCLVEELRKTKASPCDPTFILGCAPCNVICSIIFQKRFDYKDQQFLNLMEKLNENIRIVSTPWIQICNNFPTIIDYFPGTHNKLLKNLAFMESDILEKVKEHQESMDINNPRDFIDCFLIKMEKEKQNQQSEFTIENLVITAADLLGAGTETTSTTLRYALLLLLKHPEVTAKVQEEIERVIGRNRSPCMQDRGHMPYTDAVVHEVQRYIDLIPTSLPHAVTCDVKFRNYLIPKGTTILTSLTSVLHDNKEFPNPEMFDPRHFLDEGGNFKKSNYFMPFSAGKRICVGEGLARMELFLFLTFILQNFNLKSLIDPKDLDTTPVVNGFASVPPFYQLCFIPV
- assayName: inhibition of cytochrome P450 isoform activity (fluorescence screening)
- Assay type: biochemical
- studyConditions: screening at 1.1, 3.3 and 10 µM
measuredAttribute: IC50

1. O=C(Nc1ccc(-c2noc(-c3ccccc3Cl)n2)c(Cl)c1)c1ccccn1 3.3 to 10 µM

----------
- assayTarget: mGlu4 receptor (Homo sapiens)
- Construct: mGlu4 receptor NM_000841, mGlu7 receptor NM_000844.2, and mGlu8 receptor NM_000845; expressed in transfected cells; host or cells: T-REx 293
- assayName: forskolin-stimulated cAMP assay, PAM mode (EC20 of L-Glu), T-REx 293 cells
- Format: cell-based
- studyConditions: T-REx-293; PAM mode, human mGlu4; SEM where given; read-out: GluMax
- Protocol: The activity of the compounds was assessed in vitro in a forskolin-stimulated cAMP assay in T-REx 293 cells expressing human mGlu4 receptors in the presence of an EC20 concentration of L-Glu; a PAM was identified if it potentiated cAMP inhibition by the Gi/o-dependent pathway of mGlu4 receptor activation; i.e. if it was able to produce a leftward shift in the potency of the endogenous agonist. […]
measuredAttribute: Emax (%)

1. O=C(Nc1ccc(-c2noc(-c3ccc(F)cc3Cl)n2)c(Cl)c1)c1ccccn1 119
2. COc1ccccc1-c1nc(-c2ccc(NC(=O)c3ccccn3)cc2Cl)no1 111
3. COc1cc(NC(=O)c2ccccn2)ccc1-c1noc(-c2cccc(Cl)c2)n1 145
4. O=C(Nc1ccc(-c2noc(-c3ccccc3Cl)n2)c(C(F)(F)F)c1)c1ccccn1 120
5. Cc1cc(NC(=O)c2ccccn2)ccc1-c1noc(-c2ccccc2Cl)n1 135
6. COc1cc(NC(=O)c2ccccn2)ccc1-c1noc(-c2ccccc2F)n1 116
7. COc1cc(NC(=O)c2cccc(F)n2)ccc1-c1noc(-c2ccccc2F)n1 121
8. COc1cc(NC(=O)c2ccccn2)ccc1-c1noc(-c2ccccc2)n1 130

----------
- assayName: pharmacokinetic study, plasma and brain, after i.p. administration
- Format: in vivo, mice (male Albino Swiss)
- studyConditions: male, Albino Swiss, ip; plasma, mouse, 10 mg/kg i.p.; read-out: Cmax (maximum concentration)
measuredAttribute: Cmax

compound	reportedResult
O=C(Nc1ccc(-c2noc(-c3ccccc3Cl)n2)c(Cl)c1)c1ccccn1 [Compound 52]	540 nM

----------
# EC50 listing for each entry below
- assayTarget: mGlu4 receptor (Homo sapiens)
- Construct: mGlu4 receptor NM_000841, mGlu7 receptor NM_000844.2, and mGlu8 receptor NM_000845; expressed in transfected cells; host or cells: T-REx 293
- assayName: forskolin-induced cAMP assay, agonist mode, T-REx 293 cells
- Format: cell-based
measuredAttribute: EC50 (nM)

compound	reportedResult
COc1cc(NC(=O)c2ccccn2)ccc1-c1noc(-c2ccccc2F)n1 [Compound 37]	3940
COc1cc(NC(=O)c2ccccn2)ccc1-c1noc(-c2ccccc2Cl)n1 [Compound 34]	1110

----------
- assayTarget: mGlu4 receptor (Homo sapiens, UniProt Q14833)
- Construct: mGlu4 receptor NM_000841, mGlu7 receptor NM_000844.2, and mGlu8 receptor NM_000845; expressed in transfected cells; host or cells: T-REx 293
- Sequence (Q14833 33-912): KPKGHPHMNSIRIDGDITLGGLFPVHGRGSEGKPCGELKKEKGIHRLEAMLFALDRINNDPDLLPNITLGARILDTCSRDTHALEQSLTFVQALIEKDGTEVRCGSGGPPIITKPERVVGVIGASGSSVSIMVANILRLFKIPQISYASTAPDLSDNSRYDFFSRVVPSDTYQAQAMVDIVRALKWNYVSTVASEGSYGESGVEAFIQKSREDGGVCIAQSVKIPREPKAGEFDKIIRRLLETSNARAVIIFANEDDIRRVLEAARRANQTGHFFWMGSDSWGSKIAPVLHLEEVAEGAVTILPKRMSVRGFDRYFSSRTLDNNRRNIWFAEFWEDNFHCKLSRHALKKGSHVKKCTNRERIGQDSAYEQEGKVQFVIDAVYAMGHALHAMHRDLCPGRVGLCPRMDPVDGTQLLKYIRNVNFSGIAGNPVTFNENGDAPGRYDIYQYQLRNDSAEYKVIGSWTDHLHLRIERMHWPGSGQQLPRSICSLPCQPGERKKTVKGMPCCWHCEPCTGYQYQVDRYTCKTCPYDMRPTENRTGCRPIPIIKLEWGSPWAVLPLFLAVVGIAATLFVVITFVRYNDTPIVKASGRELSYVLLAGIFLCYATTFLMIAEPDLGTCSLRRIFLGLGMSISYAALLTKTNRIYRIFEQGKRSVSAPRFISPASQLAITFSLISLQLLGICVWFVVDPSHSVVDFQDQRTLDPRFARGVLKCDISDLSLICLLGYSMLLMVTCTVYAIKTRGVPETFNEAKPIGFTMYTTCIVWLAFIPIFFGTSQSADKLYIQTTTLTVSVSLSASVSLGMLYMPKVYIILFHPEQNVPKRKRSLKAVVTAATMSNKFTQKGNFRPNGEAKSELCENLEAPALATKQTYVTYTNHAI
- assayName: forskolin-stimulated cAMP assay, PAM mode (EC20 of L-Glu), T-REx 293 cells
- Type: cell-based
- studyConditions: in the presence of 10 µM of compound; SEM where given
Measured Fold shift of L-Glu dose-response curve of individual entries
measuredAttribute: Fold shift of L-Glu dose-response curve

compound	reportedResult
COc1cc(NC(=O)c2ccccn2)ccc1-c1noc(-c2cccc(Cl)c2)n1 [Compound 35]	2.2
COc1cc(NC(=O)c2cc(F)cc(F)n2)ccc1-c1noc(-c2ccccc2Cl)n1 [Compound 43]	5.0

----------
- assayTarget: CYP2C9 (Homo sapiens)
- Sequence (P11712 whole entry, canonical isoform): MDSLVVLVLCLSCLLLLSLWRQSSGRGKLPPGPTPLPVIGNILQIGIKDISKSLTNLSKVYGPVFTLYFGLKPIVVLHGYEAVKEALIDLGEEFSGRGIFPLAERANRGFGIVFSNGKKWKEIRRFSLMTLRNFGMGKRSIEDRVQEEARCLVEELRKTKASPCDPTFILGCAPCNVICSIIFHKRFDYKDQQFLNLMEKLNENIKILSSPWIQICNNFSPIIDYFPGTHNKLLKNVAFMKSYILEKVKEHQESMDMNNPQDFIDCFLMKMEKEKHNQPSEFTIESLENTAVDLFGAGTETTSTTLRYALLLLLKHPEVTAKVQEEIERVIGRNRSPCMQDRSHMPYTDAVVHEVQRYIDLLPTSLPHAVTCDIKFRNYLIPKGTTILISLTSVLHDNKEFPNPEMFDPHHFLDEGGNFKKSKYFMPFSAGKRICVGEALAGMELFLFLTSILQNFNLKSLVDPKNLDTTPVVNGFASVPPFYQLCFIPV
- assayName: inhibition of cytochrome P450 isoform activity (fluorescence screening)
- studyConditions: screening at 1.1, 3.3 and 10 µM

compound	assayTarget	IC50
O=C(Nc1ccc(-c2noc(-c3ccccc3Cl)n2)c(Cl)c1)c1ccccn1 [Compound 52]	CYP2C9 (Homo sapiens)	3.3 to 10 µM

----------
Reported Emax values are given for each entry in this list.
- assayTarget: mGlu4 receptor (Homo sapiens, UniProt Q14833)
- Construct: mGlu4 receptor NM_000841, mGlu7 receptor NM_000844.2, and mGlu8 receptor NM_000845; expressed in transfected cells; host or cells: T-REx 293
- assayName: forskolin-stimulated cAMP assay, PAM mode (EC20 of L-Glu), T-REx 293 cells
- Type: cell-based
- studyConditions: T-REx-293; PAM mode, human mGlu4; SEM where given; read-out: GluMax

molecule	readoutUnits	Emax
COc1cc(NC(=O)c2cccc(Cl)n2)ccc1-c1noc(-c2ccccc2Cl)n1	%	115
O=C(Nc1ccc(-c2noc(-c3ccccc3Cl)n2)c(Cl)c1)c1ccccn1	%	123
COc1cc(NC(=O)c2ccccn2)ccc1-c1noc(-c2ccc(Cl)cc2)n1	%	157
COc1cc(NC(=O)c2ccncn2)ccc1-c1noc(-c2ccccc2Cl)n1	%	118
COc1cc(NC(=O)c2ccccn2)ccc1-c1noc(-c2ccccc2Cl)n1	%	114
COc1cc(NC(=O)c2ccccn2)ccc1-c1noc(-c2ccc(F)cc2Cl)n1	%	124
O=C(Nc1ccc(-c2noc(-c3ccccc3Cl)n2)cc1)c1ccccn1 [Compound 17d]	%	116
COc1cc(NC(=O)c2cc(F)cc(F)n2)ccc1-c1noc(-c2ccccc2Cl)n1	%	134

----------
- assayName: pharmacokinetic study, plasma and brain, after i.p. administration
- Format: in vivo, mice (male Albino Swiss)
- studyConditions: male, Albino Swiss, ip; brain, mouse, 10 mg/kg i.p.; read-out: Tmax (converted)
measuredAttribute: Tmax (min)

1) O=C(Nc1ccc(-c2noc(-c3ccccc3Cl)n2)c(Cl)c1)c1ccccn1 30

----------
- assayTarget: mGlu4 receptor (Homo sapiens, UniProt Q14833)
- Construct: mGlu4 receptor NM_000841, mGlu7 receptor NM_000844.2, and mGlu8 receptor NM_000845; expressed in transfected cells; host or cells: T-REx 293
- assayName: forskolin-stimulated cAMP assay, PAM mode (EC20 of L-Glu), T-REx 293 cells
- Assay type: cell-based
- studyConditions: PAM mode, EC20 (3 µM) L-Glu, T-REx 293 cells expressing human mGlu4 receptor; SEM where given
compounds and their reported EC50
measuredAttribute: EC50 (µM)

1) COc1cc(NC(=O)c2ccccn2)ccc1-c1noc(-c2ccc(F)cc2Cl)n1 1.98
2) O=C(Nc1ccc(-c2noc(-c3ccccc3Cl)n2)c(C(F)(F)F)c1)c1ccccn1 0.39
3) COc1cc(NC(=O)c2cccc(Cl)n2)ccc1-c1noc(-c2ccccc2Cl)n1 1.92
4) COc1cc(NC(=O)c2cc(F)cc(F)n2)ccc1-c1noc(-c2ccccc2Cl)n1 2.5
5) COc1cc(NC(=O)c2ccccn2)ccc1-c1noc(-c2ccccc2)n1 1.83
6) O=C(Nc1ccc(-c2noc(-c3ccccc3)n2)c(Cl)c1)c1ccccn1 0.352
7) COc1cc(NC(=O)c2nccs2)ccc1-c1noc(-c2ccccc2Cl)n1 2.2
8) Cc1cc(NC(=O)c2ccccn2)ccc1-c1noc(-c2ccccc2)n1 1.65

Data provenance is paper PMC8667925.
